Entry source: patent US20250270315A1

Target: T1, C57BL/6 mouse SIRPα ECD recombinant protein (6×His tagged) (C57BL/6 mouse, UniProt P97797 32-373)
T1 construct: extracellular domain; Bought from Biointron; not shown: 6×His tag
T1 sequence (looked up): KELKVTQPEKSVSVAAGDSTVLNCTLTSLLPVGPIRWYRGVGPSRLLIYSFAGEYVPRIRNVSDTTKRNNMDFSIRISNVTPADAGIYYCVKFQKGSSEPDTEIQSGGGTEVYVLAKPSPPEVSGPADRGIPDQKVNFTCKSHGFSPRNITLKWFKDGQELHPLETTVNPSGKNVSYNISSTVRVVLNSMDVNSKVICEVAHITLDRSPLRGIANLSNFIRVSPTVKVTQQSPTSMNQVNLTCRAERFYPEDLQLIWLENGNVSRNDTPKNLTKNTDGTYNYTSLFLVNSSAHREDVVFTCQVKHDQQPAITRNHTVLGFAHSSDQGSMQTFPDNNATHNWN
Assay: ELISA, recombinant C57BL/6 mouse SIRPα ECD
Excerpt: Species cross reactivity of purified chimeric antibodies was detected by ELISA assay using recombinant protein of C57BL/6 mouse SIRPα ECD (FIG. 5A) and FACS assay using CHOK 1 cells stably expressing cyno SIRPα (FIGS. 5B and 5C). All antibodies as tested bind to cyno SIRPα at different levels but have no species cross reactivity against C57BL/6 mouse SIRPα.

[
  {
    "BINDER": "059c (antibody, V domains shown, also called chimeric antibody 059c) VH: QVQLQQSGPELVKPGASVKMSCKASGYTFSEYVLSWVKQRTGQGLEWIGEIYPGTITTYYNEKFKGKATLTADKSSNTAYIQLTSLTSEDSAVYFCGRFYDYDGGWFAYWGQGTLLTVSA VL: ENVLTQSPEKMAVSLGQKVTMTCSASSSVSSSDLHWYQQKSGASPKPLIHGTSNLASGVPARFSGSGSGTSYSLTISSVEAEDAATYYCQQWSGYPWTFGGGTNLEIK",
    "binding result": "no binding"
  },
  {
    "BINDER": "025c (antibody, V domains shown, also called chimeric antibody 025c; parental antibody of 025c) VH: EVQLQQSGAELVKPGASVKLSCTASGFNIKDYYMHWVKQRTEQGLEWIGRIDPEDGETKYAPKFQGKATITADTSSNTAYLQLSSLTSEDTAVYYCDRGLAYWGQGTLVTVSA VL: QIVLTQSPAIMSASPGEKVTLTCSASSSVSSSYLYWYQQKPGSSPKLWIYSTSNLASGVPARFSGSGSGTSYSLTISSMEAEDAASYFCHQWSSYPYTFGGGTKLEIK",
    "binding result": "no binding"
  },
  {
    "BINDER": "042c (antibody, V domains shown, also called chimeric antibody 042c) VH: QIQLVQSGPELKKPGETVKISCRASGYTFTTYGMSWVKQAPGKGLRWMGWINTYSGVSTCADDFKGRFAFSLETSATTAYLQIHNLTNEDTATYFCARDPHSYGNSPAWFPYWGQGTLVTVSA VL: DIVMTQSQKFMSTTIRDRVSITCKASQNVGISVAWYQQKSGQSPKLLIYSASNRYTGVPDRFTGSGSGTDFTLTISNMQSEDLADYFCQQYSSYPLTFGSGTKLAIK",
    "binding result": "no binding"
  }
]
